Consider the following compounds; for each one, report its Percent Effect.
Tested on: Trypanosoma cruzi
Assay: Trypanosoma cruzi phosphomannomutase and mannose-1-phosphate guanylyltransferase assay
Type: functional
Set-up: scale not given: direction of the effect not stated beside the values
Settings: 10 µM
The answer is to be given in %; state only the numeric part.

Quick one: Percent Effect for O=C1[C@H]2CC[C@H](CN(Cc3ccccc3OC(F)F)C2)N1CC1CC1 ?
4.05

Quick one: Percent Effect for Cn1cc(C2CCCN2C(=O)CCCOCc2ccccc2)cn1 (configuration not stated) ?
4.25

Quick one: Percent Effect for O=C(c1cccc(Cl)c1)N1CCCn2c(CN3CCCCC3)nnc2C1 ?
-6.3

Quick one: Percent Effect for CCCc1nc(CN2CCCC(Cn3cncn3)C2)no1 (configuration not stated) ?
0.718

Quick one: Percent Effect for O=C(c1cc(Cl)cc(Cl)c1)N1CCN(c2nccs2)CC1 ?
0.588

Quick one: Percent Effect for CCCN1CCN(C(=O)C(C)n2cc(Br)cn2)CC1 (configuration not stated) ?
3.05

Quick one: Percent Effect for Cc1nc(CN2CCN(C(=O)c3ccn(C)c(=O)c3)CC2)cs1 ?
2.15

Quick one: Percent Effect for Fc1ccc(CN2CCCN(Cc3cscn3)CC2)cc1 ?
-1.27

Quick one: Percent Effect for Cn1ccc(C(=O)NC2CCC23CCN(C(=O)c2ccncc2)CC3)c1 (configuration not stated) ?
-3.17

Quick one: Percent Effect for CS(=O)(=O)NCC1CCCN(C(=O)Nc2cccnc2N2CCCC2)C1 (configuration not stated) ?
-6.33

Quick one: Percent Effect for Cc1nn(C)c(C)c1C1CCCN1CC(=O)NC(C1CC1)C1CC1 (configuration not stated) ?
4.25

Quick one: Percent Effect for CS(=O)(=O)NCc1nnc2n1CCN(CC1CC1)C2 ?
-0.293

Quick one: Percent Effect for CCOCC1CN(S(C)(=O)=O)Cc2ncn(CC3CC3)c21 (configuration not stated) ?
3.81

Quick one: Percent Effect for CC(=O)N(Cc1ncc(C(C)C)o1)C1CCN(Cc2ncc[nH]2)C1 (configuration not stated) ?
3.99

Quick one: Percent Effect for Cc1noc(C2CCN(C(=O)c3c(C)noc3C)CC2)n1 ?
1.47

Quick one: Percent Effect for Cc1nccn1C1CCCN(C(=O)c2ccc(N3CCCC3)nn2)C1 (configuration not stated) ?
1.59

Quick one: Percent Effect for Cc1ccc(N2CCCN(C(=O)c3cc(Cl)c[nH]3)CC2)nn1 ?
-3.17

Quick one: Percent Effect for Cc1nnc2n1CCN(Cc1ncc(-c3ccc(Cl)cc3)o1)C2 ?
3.38

Quick one: Percent Effect for Cc1nc(C)n(CC2CN(c3nnc(C)c(C)c3C#N)CCO2)n1 (configuration not stated) ?
1.13

Quick one: Percent Effect for CNS(=O)(=O)c1ccc(C(=O)NC2CCc3nc(C)cn3C2)o1 (configuration not stated) ?
2.26

Quick one: Percent Effect for CN(C)CC1CN(Cc2cccc(C(=O)N(C)C)c2)CCO1 (configuration not stated) ?
-0.562

Quick one: Percent Effect for O=C1CN(Cc2nnc(-c3ccccc3Br)o2)CCN1 ?
2.43

Quick one: Percent Effect for N#Cc1cccc(CN2CC[C@@H]3[C@@H]2CC(=O)N3Cc2cccnc2)c1 ?
-4.72

Quick one: Percent Effect for CC(C)C(C(=O)N1CCCN(Cc2nccn2C)CC1)N1CCCC1 (configuration not stated) ?
-1.58

Quick one: Percent Effect for NC(=O)N1CC[C@H](O)[C@@H]1Cc1cccnc1 ?
-9.48

Quick one: Percent Effect for Cc1nc(C)n(CC2CCCN(Cc3nc(C4CC4)no3)C2)n1 (configuration not stated) ?
3.11

Quick one: Percent Effect for CC(C)NC(=O)N1CCN(S(=O)(=O)C2CC2)CC2(CC(=O)N(C)C2)C1 (configuration not stated) ?
5.23

Quick one: Percent Effect for O=C(Cn1cnc(NC(=O)CC2CCCC2)n1)NCc1ccccc1 ?
9.96

Quick one: Percent Effect for Cc1ccccc1CNc1nc(O)cc(C2CC(=O)N(C)C2)n1 (configuration not stated) ?
-44.5

Quick one: Percent Effect for COCCOc1ccccc1CNCc1c(C)nn(C)c1N(C)C ?
-2.92

Quick one: Percent Effect for CCc1nc(NS(=O)(=O)c2ccc(F)cc2C)no1 ?
8.67

Quick one: Percent Effect for N#Cc1ccc(F)c(CN2CCCC2Cn2cccn2)c1 (configuration not stated) ?
1.39

Quick one: Percent Effect for Cc1cccc(S(=O)(=O)NCC(C)N2CCN(C)CC2)c1Cl (configuration not stated) ?
-0.492

Quick one: Percent Effect for c1ccc(-c2nc(CN3CCCC3Cn3cncn3)cs2)cc1 (configuration not stated) ?
3.68

Quick one: Percent Effect for CC(Cn1cccn1)NC(=O)NCCc1ccc(Cl)s1 (configuration not stated) ?
-0.283

Quick one: Percent Effect for CN(C)CCO[C@H]1CN(Cc2cccc(C#N)c2)[C@@H]2COC[C@H]12 ?
2.32

Quick one: Percent Effect for Cc1nc(CN2CCCC(N(C)CCc3cccs3)C2)no1 (configuration not stated) ?
-1.65

Quick one: Percent Effect for CCOc1ccccc1C(=O)NS(=O)(=O)c1ccc2c(c1)OCCCO2 ?
3.08

Quick one: Percent Effect for CCn1nnc2cc(C(=O)N3CCCC3Cn3cc(C)cn3)ccc21 (configuration not stated) ?
3.31

Quick one: Percent Effect for O=C(C1CCC1)N1CCN(c2snc3ccccc23)CC1 ?
-0.718

Quick one: Percent Effect for CCn1c(CN(C)C)nnc1C1CCN(Cc2cccc(OC)c2)CC1 ?
-3.64

Quick one: Percent Effect for CC(=O)N1CC(=O)N(c2cnn(C)c2)CC12CCN(Cc1ccoc1)C2 (configuration not stated) ?
1.95

Quick one: Percent Effect for Cc1cc(CN2CCN(C(=O)NC(C)Cn3ccnc3)CC2)no1 (configuration not stated) ?
3.38

Quick one: Percent Effect for COc1ccccc1OCc1cc(C(=O)N2CC=CC2C(C)C)n[nH]1 (configuration not stated) ?
2.82

Quick one: Percent Effect for CCCNC(=O)CCC(=O)Nc1ccc(-n2cncn2)c(F)c1 ?
-6.2

Quick one: Percent Effect for CSc1nccn1-c1cccc(C(=O)NCC2CC2)c1 ?
6.82

Quick one: Percent Effect for CN(C)C(=O)CC1CC2(CCN(c3ncccn3)CC2)c2ccccc21 (configuration not stated) ?
3.32

Source of measurements: ChEMBL document CHEMBL3988442
